Reference source for all entries: PubChem BioAssay AID1159580

# assay-text: chemical genetic growth profiling, strain panel (AID 1159580);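 also: tested at 20 µM; growth read once vehicle control cultures reached saturation at 30 °C; lower values mean less growth of the strain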
# run-conditions: S. cerevisiae deletion strains, growth OD, locus YKL085W, strain MDH1 (second series)
The campaign covered roughly 5,500 compounds. About 2,000 (36%) were called active. Inconclusive results (about 18%) are left out. Rule as the data show it: active = normalized growth mostly below about 0.91 (no sharp cut-off); inconclusive = no clear call, values can overlap the other calls; inactive = mostly above about 0.92. The list shows a part of the results.
Labels: active, inactive

[[record]]
compound = "CN(Cc1cnc2nc(N)nc(N)c2n1)c1ccc(C(=O)NC(CCC(=O)O)C(=O)O)cc1 (stereo unspecified)"
classification = "active"

[[record]]
compound = "Cc1cccc(CN2CCN(C(c3ccccc3)c3ccc(Cl)cc3)CC2)c1 (stereo unspecified)"
classification = "inactive"

[[record]]
compound = "O=C(O)CCCCC1SCC2NC(=O)NC21 (stereo unspecified)"
classification = "inactive"

[[record]]
compound = "Nc1nc(N)c2nc(CNc3ccc(C(=O)NC(CCC(=O)O)C(=O)O)cc3)cnc2n1 (stereo unspecified)"
classification = "inactive"

[[record]]
compound = "COc1ccccc1-c1cc(=O)c2cccc(OC)c2o1"
classification = "inactive"

[[record]]
compound = "CCCN(CCC)C(=O)C(CCC(=O)O)NC(=O)c1ccccc1 (stereo unspecified)"
classification = "inactive"

[[record]]
compound = "CO[C@@H]1[C@@H](O[C@@H]2O[C@H](C)[C@@H](O[C@H]3C[C@@](C)(O)[C@H](O)[C@H](C)O3)[C@H](N(C)C)[C@H]2O)[C@@H](CC=O)C[C@@H](C)[C@@H](O[C@H]2CC[C@H](N(C)C)[C@@H](C)O2)/C=C/C=C/C[C@H](C)OC(=O)C[C@H]1O"
classification = "inactive"

[[record]]
compound = "Nc1nc2c(c(=O)[nH]1)N(C=O)C(CNc1ccc(C(=O)N[C@@H](CCC(=O)O)C(=O)O)cc1)CN2 (stereo partly specified)"
classification = "inactive"

[[record]]
compound = "CCn1cc(C(=O)O)c(=O)c2cc3c(cc21)OCO3"
classification = "inactive"

[[record]]
compound = "O=C(O)c1cc(=O)c2c(OCC(O)COc3cccc4oc(C(=O)O)cc(=O)c34)cccc2o1"
classification = "inactive"

[[record]]
compound = "COc1cc(/C=C/C(=O)O)ccc1O"
classification = "inactive"

[[record]]
compound = "CCN(CC)CCOC(=O)C(Cc1cccc2ccccc12)CC1CCCO1 (stereo unspecified)"
classification = "inactive"

[[record]]
compound = "Nc1nc2ncc(CNc3ccc(C(=O)N[C@@H](CCC(=O)O)C(=O)O)cc3)nc2c(=O)[nH]1"
classification = "inactive"

[[record]]
compound = "O=C(O)CCC(=O)c1ccc(-c2ccccc2)cc1"
classification = "inactive"

[[record]]
compound = "CC(=O)C1=C(O)C2C3c4c[nH]c5cccc(c45)CC3C(C)(C)N2C1=O (stereo unspecified)"
classification = "inactive"

[[record]]
compound = "CCn1cc(C(=O)O)c(=O)c2cnc(N3CCCC3)nc21"
classification = "inactive"

[[record]]
compound = "CCn1cc(C(=O)O)c(=O)c2ccc(C)nc21"
classification = "inactive"

[[record]]
compound = "C[C@@]12C(=O)OC(=O)[C@]1(C)C1CCC2O1"
classification = "active"

[[record]]
compound = "O=C(O)CCCCCCCCCCCCC1C=CCC1 (stereo unspecified)"
classification = "inactive"

[[record]]
compound = "COc1ccccc1-c1cc(=O)c2c(OC)cccc2o1"
classification = "inactive"

[[record]]
compound = "COc1cc(/C=C/C(=O)O)cc(OC)c1OC"
classification = "inactive"

